- ASSAY SUMMARY: Efflux ratio of permeability from basolateral to apical over apical to basolateral side in human Caco2 cells at 100 uM after 20 mins by HPLC-UV analysis
- Type: ADME, cell-based
- RUN PARAMETERS: Caco-2
MEASURED ATTRIBUTE: efflux ratio at 20 min, 100 µM

Inquiry: Entry CN(C)CCN(CC1CCCN(C2Cc3ccccc3C2)C1)C(=O)c1ccc2cccc(O)c2n1 (racemic) needs its efflux ratio at 20 min, 100 µM filled in; supply it.
Reply text: 1.6

###

- SYSTEM UNDER TEST: Cholinesterase (Homo sapiens)
MEASURED ATTRIBUTE: IC50 (nM)
Answers are plain numbers, in nM.

>>> print(df.to_string())
                                   compound              system_under_test  measured_attribute  experimental_result
0  CN(C)CCN(CC1CCCN(C2Cc3ccccc3C2)C1)C(=O)/C=C/c1ccc(O)cc1 (racemic)  Cholinesterase (Homo sapiens)                IC50                   71
1  CN(C)CCN(CC1CCCN(C2Cc3ccccc3C2)C1)C(=O)c1cc(O)c2cccc(O)c2n1 (racemic)  Cholinesterase (Homo sapiens)                IC50                   19
2  CN(C)CCN(CC1CCCN(C2Cc3ccccc3C2)C1)C(=O)[C@@H]1N=C(c2ccccc2O)CS1 (mixture of isomers)  Cholinesterase (Homo sapiens)                IC50                  229
3  CN(C)CCN(CC1CCCN(C2Cc3ccccc3C2)C1)C(=O)c1cccc(O)c1 (racemic)  Cholinesterase (Homo sapiens)                IC50                 2490

Your task in this section: give IC50 for each listed record.
1. CN(C)CCN(CC1CCCN(C2Cc3ccccc3C2)C1)C(=O)c1cc([N+](=O)[O-])c2cccnc2c1O (racemic)
2. CN(C)CCN(CC1CCCN(Cc2csc(Nc3ccccn3)n2)C1)C(=O)c1ccc2ccccc2c1 (racemic)
3. CN(C)CCN(CC1CCCN(C2Cc3ccccc3C2)C1)C(=O)c1ccc(O)cc1O (racemic)
4. CN(C)CCN(CC1CCCN(C2Cc3ccccc3C2)C1)C(=O)c1ccc(O)nc1 (racemic)

Reply text:
28
103
460
21000

###

- ASSAY SUMMARY: Permeability across apical to basolateral side in human Caco2 cells at 100 uM after 20 mins by HPLC-UV analysis
- Assay type: ADME, cell-based
- RUN PARAMETERS: Caco-2
For each entry below, report its Papp A→B at 20 min, 100 µM value.
Answers are plain numbers, in ×10⁻⁶ cm/s.

                                   compound  experimental_result
0  CN(C)CCN(CC1CCCN(C2Cc3ccccc3C2)C1)C(=O)c1ccc2cccnc2c1O (racemic)                 15.1

Consider now this further compound.
Inquiry: Answer with reported Papp A→B at 20 min, 100 µM of CN(C)CCN(CC1CCCN(C2Cc3ccccc3C2)C1)C(=O)c1ccc2cccc(O)c2n1 (racemic)
Reply text: 21.5

###

- SYSTEM UNDER TEST: Cholinesterase (Homo sapiens)
pIC50: −log10 of the molar value.
Label scheme for pIC50: bottom bin = under 6, middle bin = from 6 up to 7, top bin = 7 and over

// below: answered molecules
In [3]: df
Out[3]:
                                   molecule              system_under_test  category_label
0  CN(C)CCN(CC1CCCN(Cc2ccc3cccc(O)c3n2)C1)C(=O)c1ccc2ccccc2c1 (racemic)  Cholinesterase (Homo sapiens)         top bin
1  CN(C)CCN(CC1CCCN(C2Cc3ccccc3C2)C1)C(=O)c1ccc2c([N+](=O)[O-])ccc(O)c2n1 (racemic)  Cholinesterase (Homo sapiens)      bottom bin
2  COc1ccc(C(=O)N(CCN(C)C)CC2CCCN(C3Cc4ccccc4C3)C2)cc1 (racemic)  Cholinesterase (Homo sapiens)      middle bin
3  CN(C)CCN(CC1CCCN(C2Cc3ccccc3C2)C1)C(=O)c1cc2ccccc2oc1=O (racemic)  Cholinesterase (Homo sapiens)         top bin
4  CN(C)CCN(CC1CCCN(C2Cc3ccccc3C2)C1)C(=O)c1csc(Nc2ccccn2)n1 (racemic)  Cholinesterase (Homo sapiens)      middle bin
5  Cc1c(C)c2c(c(C)c1O)CCC(C)(C(=O)N(CCN(C)C)CC1CCCN(C3Cc4ccccc4C3)C1)O2 (racemic)  Cholinesterase (Homo sapiens)      bottom bin
6  COCCN(CC1CCCN(C2Cc3ccccc3C2)C1)C(=O)c1ccc2cccnc2c1O (racemic)  Cholinesterase (Homo sapiens)      middle bin
7  CN(C)CCN(CC1CCCN(C2Cc3ccccc3C2)C1)C(=O)c1ccc2cccc(O)c2n1 (racemic)  Cholinesterase (Homo sapiens)         top bin

Inquiry: Band assignment needed for CN(C)CCN(CC1CCCN(C2Cc3ccccc3C2)C1)C(=O)c1ccc(O)cc1 (racemic) please.
Reply text: bottom bin

###

Task for the reader: assign each of the following compounds its reported Papp B→A at 20 min, 100 µM.
- ASSAY SUMMARY: Permeability across basolateral to apical side in human Caco2 cells at 100 uM after 20 mins by HPLC-UV analysis
- Type: ADME, cell-based
- RUN PARAMETERS: Caco-2
One number for each entry, in ×10⁻⁶ cm/s.

In [3]: df
Out[3]:
                                   compound          measured_attribute  experimental_result
0  CN(C)CCN(CC1CCCN(C2Cc3ccccc3C2)C1)C(=O)c1ccc2cccnc2c1O (racemic)  Papp B→A at 20 min, 100 µM                 22.8

Please find the next compound below.
Inquiry: Look up and state reported Papp B→A at 20 min, 100 µM for CN(C)CCN(CC1CCCN(C2Cc3ccccc3C2)C1)C(=O)c1ccc2cccc(O)c2n1 (racemic)
Reply text: 35.1

###

- SYSTEM UNDER TEST: Cholinesterase (Homo sapiens, UniProt P06276)
- Sequence (P06276 whole entry): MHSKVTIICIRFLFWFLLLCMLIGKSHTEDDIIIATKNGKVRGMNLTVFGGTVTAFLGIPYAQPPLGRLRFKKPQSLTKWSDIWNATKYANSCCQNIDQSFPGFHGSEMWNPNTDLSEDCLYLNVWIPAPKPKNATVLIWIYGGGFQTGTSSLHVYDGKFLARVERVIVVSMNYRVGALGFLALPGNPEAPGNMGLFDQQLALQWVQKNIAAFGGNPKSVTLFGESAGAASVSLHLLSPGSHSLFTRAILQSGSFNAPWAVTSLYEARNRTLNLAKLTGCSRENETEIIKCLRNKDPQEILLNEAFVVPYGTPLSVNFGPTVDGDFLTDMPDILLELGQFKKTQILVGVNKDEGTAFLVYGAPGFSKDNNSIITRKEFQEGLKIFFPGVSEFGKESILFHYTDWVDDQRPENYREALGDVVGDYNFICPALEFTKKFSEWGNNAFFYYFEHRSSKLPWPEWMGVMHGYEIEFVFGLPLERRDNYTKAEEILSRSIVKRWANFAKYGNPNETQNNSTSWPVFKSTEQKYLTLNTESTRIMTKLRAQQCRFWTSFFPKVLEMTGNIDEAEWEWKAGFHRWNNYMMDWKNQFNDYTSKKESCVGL
- ASSAY SUMMARY: Inhibition of human recombinant BChE using butyrylthiocholine as substrate preincubated for 300 secs followed by substrate addition and measured for 1 min by Ellman's assay
MEASURED ATTRIBUTE: IC50 (nM)
One number for each entry, in nM.

Inquiry: Output IC50 of CC(=O)NC1=NN(C(C)=O)C(C)(c2ccccc2)S1 (stereo unspecified)
Reply text: 4.9

###

- ASSAY SUMMARY: Cytotoxicity against human SH-SY5Y cells after 48 hrs by MTS assay
- Type: cell-based
- RUN PARAMETERS: read-out: LD50
MEASURED ATTRIBUTE: CC50 at 48 h (µM)
Give bare numbers, in µM.

Answer for every listed entry: what is its CC50 at 48 h? The entries follow.
1. CN(C)CCN(CC1CCCN(C2Cc3ccccc3C2)C1)C(=O)c1ccc2cccc(O)c2n1 (racemic)
2. CN(C)CCN(CC1CCCN(C2Cc3ccccc3C2)C1)C(=O)c1ccc2cccnc2c1O (racemic)

Reply text:
9.7
9.55
